- assay-overview: NCI Yeast Anticancer Drug Screen. Data for the cln2 rad14 strain (AID 165);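 further: 0% = growth equal to vehicle treated cultures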
- conditions: S. cerevisiae cln2 rad14 strain, at 50.0 µM, active compounds read high
Compounds without any hit were thinned out: in the full panel of roughly 79,000, 15% have a hit.
Measured growth inhibition, listed per entry.
// units = %; emit number, no label

Value lookup for growth inhibition; key = COc1cc2ccnc([C@@H](OC(=O)c3ccccc3)c3ccc(OC)c(OC)c3OC)c2cc1OC
6.25

---

- assay-overview: NCI Yeast Anticancer Drug Screen. Data for the cln2 rad14 strain (AID 165);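 further: 0% = growth equal to vehicle treated cultures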
- conditions: S. cerevisiae cln2 rad14 strain, at 50.0 µM, active compounds read high
- Method: Growth inhibition of yeast strains with defined genetic alterations is measured as a screen for potential anti-cancer activity. Selected strains with alterations in DNA damage repair or cell cycle control were exposed to compounds and growth inhibition was measured relative to vehicle treated controls. The strain used in this assay is cln2 rad14
This is part of a sample that, as a whole, favours compounds with a hit. Of some 79,000 tested, about 15% had one in any assay. Calls of active or inactive are those of the source. Rule as the data show it: active = growth inhibition above about 70%; inactive = the rest.
This listing pairs compounds with measured growth inhibition.

CCC(O)(CC)c1ccc2ncccc2c1 ... -19.1% (inactive)
c1ccc(C(=NN(CCCCN(N=C(c2ccccc2)c2ccccc2)c2ccccc2)c2ccccc2)c2ccccc2)cc1 ... 6.4% (inactive)
CCC1(CC)C(=O)N(C(=O)c2ccc(Cl)cc2)N(C(=O)c2ccccc2Cl)C1=O ... 41.8% (inactive)

Consider the compound shown here: O=C(O)c1cccc([N+](=O)[O-])c1C(=O)O What is its recorded growth inhibition?
7.9% (inactive)

---

growth inhibition values by entry
- assay-overview: NCI Yeast Anticancer Drug Screen. Data for the rad50 strain (AID 155);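 further: 0% = growth of vehicle-only cultures of the same strain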
- conditions: S. cerevisiae rad50 strain growth inhibition; at 50.0 µM; active compounds read high
About 79,000 compounds went through this panel and 15% of them were active in at least one assay; those are over-represented in the sample as a whole. The source made the active and inactive calls. Cut-off read from the data, not from the text of the source: active = growth inhibition above about 70%; inactive = the rest.

Sample answers from the record:
Clc1ccc(-n2cccc2)cc1 ... -4.75% (inactive)
Nc1cc(Cl)c2c(c1)C(=O)c1ccccc1-2 ... -2.45% (inactive)
COC(=O)C(CC(=O)Nc1ccc(Cl)c(Cl)c1)C(=O)C(=O)Nc1ccc(Cl)c(Cl)c1 (configuration not stated) ... -36.2% (inactive)
CC(=O)Nc1ccc(O)c([N+](=O)[O-])c1 ... 3.1% (inactive)
CSC1(SC2=NCCN2)SC2(NCCN2)S1 ... 1.75% (inactive)
CC1(C)CNC(=O)C2(C=NC(C)(C)CNC(=O)C3(C=N1)CCCO3)CCCO2 (configuration not stated) ... -10.2% (inactive)
CCCC1=NC(C(F)(F)F)(C(F)(F)F)N=C(N2CCOCC2)O1 ... 0.95% (inactive)
CCCNCC(O)CNc1ccc(Cl)cc1 (configuration not stated) ... 3.1% (inactive)
COc1ccccc1C(=O)N/N=C\c1c[nH]c2ccccc12 ... -3.35% (inactive)
COc1ccc(/C=C2\SC(c3ccc(OC)cc3)N(NC(=O)Cc3ccccc3)C2=O)cc1 (configuration not stated) ... -14.2% (inactive)

Which value of growth inhibition has been reported for COc1cc(Br)c2ncccc2c1 in the records?
1.75% (inactive)

Further, for CC(NCc1cc(O)c(CNC(C)c2ccccc2)cc1O)c1ccccc1 (configuration not stated) ?
4.55% (inactive)
